I'd be grateful if you could share measured LD50 for these entries.
Assay: LD-50 mice i.p. (acute toxicity)
Details: mouse, in vivo, ip
Your answer is read as mg/kg, so omit the unit and give the number.

Task item: Query LD50 for CC(Oc1cccc(C(=O)c2ccc(Cl)cc2Cl)c1)C(=O)O (stereo not drawn)
Reply: 800

Task item: Answer with the recorded LD50 of CC(C)(Oc1cccc(C(=O)c2cccc(C(F)(F)F)c2)c1)C(=O)O only.
Reply: 300

Task item: Fill in reported LD50 for this entry: CC(Oc1cccc(C(=O)c2cccc(C(F)(F)F)c2)c1)C(=O)O (stereo not drawn)
Reply: 350
